B1: ZMYND11 (parent)
chain: YCSIKCQQEHWHAEHKRTCRRKR

Variants of: B1
Test: protein stability index of a GFP-peptide fusion (GPS, HEK-293T) (PSI 1-6); higher = more stable;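 further: lentivirally expressed fusions sorted by FACS into six bins by GFP to DsRed ratio, PSI derived from sequencing read proportions per bin multiplied by bin number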
Settings: c terminus: native
Values of protein stability index greater than or equal to 2 map to YES; values below map to NO.

[ask] Say whether Y1C shows protein stability index of 2 or more.
[reply] YES

[ask] Say whether S3D shows protein stability index of 2 or more.
[reply] YES

[ask] Say whether R17H shows protein stability index of 2 or more.
[reply] YES

[ask] Say whether C2T shows protein stability index of 2 or more.
[reply] YES

[ask] Say whether R21W shows protein stability index of 2 or more.
[reply] NO

[ask] Say whether K22V shows protein stability index of 2 or more.
[reply] YES

[ask] Say whether E9H shows protein stability index of 2 or more.
[reply] YES

[ask] Say whether C2Q shows protein stability index of 2 or more.
[reply] NO

[ask] Say whether H12G shows protein stability index of 2 or more.
[reply] YES

[ask] Say whether R20F shows protein stability index of 2 or more.
[reply] YES

[ask] Say whether K16Y shows protein stability index of 2 or more.
[reply] NO

[ask] Say whether H15M shows protein stability index of 2 or more.
[reply] NO

[ask] Say whether C19D shows protein stability index of 2 or more.
[reply] YES

[ask] Say whether S3F shows protein stability index of 2 or more.
[reply] NO

[ask] Say whether S3V shows protein stability index of 2 or more.
[reply] YES

[ask] Say whether C6E shows protein stability index of 2 or more.
[reply] YES

[ask] Say whether Y1E shows protein stability index of 2 or more.
[reply] YES

[ask] Say whether E14A shows protein stability index of 2 or more.
[reply] YES

[ask] Say whether K5H shows protein stability index of 2 or more.
[reply] YES

[ask] Say whether Q8D shows protein stability index of 2 or more.
[reply] YES

[ask] Say whether S3Q shows protein stability index of 2 or more.
[reply] YES
